System: Acinetobacter baumannii
Test description: Antibacterial activity against Acinetobacter baumannii assessed as inhibition of bacterial growth by two fold serial dilution method
Format: functional
Quantity kind: log10(MIC) (log10 of the value in µg/mL)
Values below are the log10 of the recorded MIC, with µg/mL as the unit.

{"Compound": "CCCCc1nc(Cl)c(C2NC(=O)NC(CN(c3nccs3)S(=O)(=O)c3ccc(N)cc3)=C2C(=O)OCC)[nH]1 (centres undefined)", "Quantitative readout": 2.41}
{"Compound": "CCCCc1nc(Cl)c(C2NC(=O)NC(C)=C2C(=O)OCC)n1CCN1CCOCC1 (centres undefined)", "Quantitative readout": 2.11}
{"Compound": "CCCCc1nc(Cl)c(C2NC(=O)NC(CN(c3cc(C)no3)S(=O)(=O)c3ccc(N)cc3)=C2C(=O)OCC)[nH]1 (centres undefined)", "Quantitative readout": -0.30}
{"Compound": "CCCCc1nc(Cl)c(C2NC(=O)NC(C)=C2C(=O)OCC)n1S(=O)(=O)c1cccc(Cl)c1 (centres undefined)", "Quantitative readout": 2.11}
{"Compound": "CCCCc1nc(Cl)c(C2NC(=O)NC(C)=C2C(=O)OCC)n1S(=O)(=O)c1ccc(C(C)(C)C)cc1 (centres undefined)", "Quantitative readout": 2.11}
{"Compound": "Cc1cc(NS(=O)(=O)c2ccc(N)cc2)no1 [SULFAMETHOXAZOLE]", "Quantitative readout": 1.51}
{"Compound": "C=CCn1c(CCCC)nc(Cl)c1C1NC(=O)NC(C)=C1C(=O)OCC (centres undefined)", "Quantitative readout": 1.81}
{"Compound": "CCCCc1nc(Cl)c(C2NC(=O)NC(C)=C2C(=O)OCC)n1Cc1ccc(C)cc1 (centres undefined)", "Quantitative readout": 1.81}
{"Compound": "CCCCc1nc(Cl)c(C2NC(=O)NC(C)=C2C(=O)OCC)n1CC(=O)N1CCOCC1 (centres undefined)", "Quantitative readout": 2.11}
{"Compound": "CCCCc1nc(Cl)c(C2NC(=O)NC(C)=C2C(=O)OCC)n1S(=O)(=O)c1ccc(C(F)(F)F)cc1 (centres undefined)", "Quantitative readout": 1.20}

Sample CCCCc1nc(Cl)c(C2NC(=O)NC(C)=C2C(=O)OCC)n1Cc1ccc(Cl)cc1 (centres undefined) — what was its log10(MIC)?
1.51

Sample CCCCc1nc(Cl)c(C2NC(=O)NC(CN(c3ccc(OC)nn3)S(=O)(=O)c3ccc(N)cc3)=C2C(=O)OCC)[nH]1 (centres undefined) — what was its log10(MIC)?
1.81

Sample CCCCc1nc(Cl)c(C2NC(=O)NC(C)=C2C(=O)OCC)n1Cc1ccc(F)cc1 (centres undefined) — what was its log10(MIC)?
1.51

Sample CCCCc1nc(Cl)c(C2NC(=O)NC(C)=C2C(=O)OCC)n1CC (centres undefined) — what was its log10(MIC)?
2.11

Sample NC1CCN(c2c(F)cc3c(=O)c(C(=O)O)cn(C4CC4)c3c2Cl)C1 (centres undefined) [CLINAFLOXACIN] — what was its log10(MIC)?
0.30

Sample C#CCn1c(CCCC)nc(Cl)c1C1NC(=O)NC(C)=C1C(=O)OCC (centres undefined) — what was its log10(MIC)?
1.81

Sample CCCCc1nc(Cl)c(C2NC(=O)NC(C)=C2C(=O)OCC)n1C (centres undefined) — what was its log10(MIC)?
1.81

Sample CCCCc1nc(Cl)c(C2NC(=O)NC(C)=C2C(=O)OCC)n1Cc1ccc(Cl)c(Cl)c1 (centres undefined) — what was its log10(MIC)?
2.11

Sample CCCCc1nc(Cl)c(C2NC(=O)NC(C)=C2C(=O)OCC)n1S(=O)(=O)c1cccc(Br)c1 (centres undefined) — what was its log10(MIC)?
1.51
